Molecular target: D(2) dopamine receptor (Homo sapiens, UniProt P14416)
Sequence (P14416 whole entry): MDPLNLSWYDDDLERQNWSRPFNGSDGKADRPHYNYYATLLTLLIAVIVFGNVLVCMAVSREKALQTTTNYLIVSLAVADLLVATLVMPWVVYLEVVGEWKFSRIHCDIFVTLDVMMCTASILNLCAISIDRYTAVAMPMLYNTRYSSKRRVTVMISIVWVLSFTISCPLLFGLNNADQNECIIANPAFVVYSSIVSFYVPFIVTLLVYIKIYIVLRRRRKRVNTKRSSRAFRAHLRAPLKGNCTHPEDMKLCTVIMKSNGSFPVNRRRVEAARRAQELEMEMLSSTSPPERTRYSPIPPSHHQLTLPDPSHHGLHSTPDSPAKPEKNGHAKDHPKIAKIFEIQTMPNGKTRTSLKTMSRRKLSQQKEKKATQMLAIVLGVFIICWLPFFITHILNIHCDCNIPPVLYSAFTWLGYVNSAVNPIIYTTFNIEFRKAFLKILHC
Assay: Binding affinity to human cloned dopamine D2 receptor
Checkbox rule: Ki lower than 200 nM = Fulfilled; Ki not lower than 200 nM = Not fulfilled.

# Compound, Label Value
records = [
    ("CC(C)(C)c1nc(N2CCN(CCCCn3cccnc3=O)CC2)cc(C(F)(F)F)n1", "Not fulfilled"),
    ("Cn1c(=O)ccn(CCCCN2CCN(c3cc(C(F)(F)F)nc(C(C)(C)C)n3)CC2)c1=O", "Not fulfilled"),
    ("CC(C)(C)c1nc(N2CCN(CCCCn3cc(F)c(=O)[nH]c3=O)CC2)cc(C(F)(F)F)n1", "Not fulfilled"),
    ("Cc1ccn(CCCCN2CCN(c3cc(C(F)(F)F)nc(C(C)(C)C)n3)CC2)c(=O)n1", "Not fulfilled"),
    ("CC(C)(C)c1nc(N2CCN(CCCCn3ccc(-c4ccccc4)nc3=O)CC2)cc(C(F)(F)F)n1", "Fulfilled"),
    ("CC(C)(C)c1nc(N2CCN(CCCCn3ccc(N4CCCCC4)nc3=O)CC2)cc(C(F)(F)F)n1", "Fulfilled"),
    ("CCOc1ccn(CCCCN2CCN(c3cc(C(F)(F)F)nc(C(C)(C)C)n3)CC2)c(=O)n1", "Not fulfilled"),
    ("CC(C)(C)c1nc(N2CCN(CCCSc3nccc(O)n3)CC2)cc(C(F)(F)F)n1 [ABT-925]", "Not fulfilled"),
    ("CC(C)(C)c1nc(N2CCN(CCCCn3ccc(C4CC4)nc3=O)CC2)cc(C(F)(F)F)n1", "Fulfilled"),
    ("CC(C)(C)c1nc(N2CCN(CCCCn3ccc(C4CCC4)nc3=O)CC2)cc(C(F)(F)F)n1", "Not fulfilled"),
    ("CC(C)(C)c1nc(N2CCN(CCCCn3ccc(C4CCCCC4)nc3=O)CC2)cc(C(F)(F)F)n1", "Not fulfilled"),
    ("CCc1cn(CCCCN2CCN(c3cc(C(F)(F)F)nc(C(C)(C)C)n3)CC2)c(=O)[nH]c1=O", "Fulfilled"),
    ("CC(C)(C)c1nc(N2CCN(CCCCn3cc(C(F)(F)F)c(=O)[nH]c3=O)CC2)cc(C(F)(F)F)n1", "Not fulfilled"),
    ("CC(C)(C)c1nc(N2CCN(CCCCn3ccc(N4CCC4)nc3=O)CC2)cc(C(F)(F)F)n1", "Fulfilled"),
    ("Cc1cn(CCCCN2CCN(c3cc(C(F)(F)F)nc(C(C)(C)C)n3)CC2)c(=O)[nH]c1=O", "Not fulfilled"),
    ("CC(C)(C)c1ccn(CCCCN2CCN(c3cc(C(F)(F)F)nc(C(C)(C)C)n3)CC2)c(=O)n1", "Not fulfilled"),
    ("CC(C)(C)c1nc(N2CCN(CCCCn3cc(C#N)c(=O)[nH]c3=O)CC2)cc(C(F)(F)F)n1", "Not fulfilled"),
    ("CC(C)(C)c1nc(N2CCN(CCCCn3cc(Cl)c(=O)[nH]c3=O)CC2)cc(C(F)(F)F)n1", "Not fulfilled"),
    ("Cc1cn(CCCCN2CCN(c3cc(C(F)(F)F)nc(C(C)(C)C)n3)CC2)c(=O)n(C)c1=O", "Not fulfilled"),
]

Just for reference, ChEMBL document CHEMBL1149389 is where these values come from.
